tested on: T-47D breast; assay: NCI tumour cell line growth inhibition, 48 h
// values below are reported TGI

// field: TGI; key: CC(Cc1ccc(O)c(O)c1)C(C)Cc1ccc(O)c(O)c1 (stereo not given) ; value = 41.2 µM

Given item CC1=C(C(=O)OC(C)C)C(c2ccccc2[N+](=O)[O-])C(C(=O)OC(CO[N+](=O)[O-])CO[N+](=O)[O-])=C(C)N1 (stereo not given) , the value recorded as its TGI is > 100 µM

Reported TGI for O=C(/C=C\c1ccnc2ccccc12)c1ccc([N+](=O)[O-])cc1 was > 66.4 µM

TGI for COCN1C(=O)[C@@H]2CCCN2C(=O)c2cc([N+](=O)[O-])ccc21 is > 100 µM

TGI in this record for Cc1ccc(S(=O)(=O)N/N=C2\C=C[C@]3(CC2)C(=O)N(C)c2ccccc23)cc1 : > 100 µM
